FYI, the data here is from the supplement of paper PMC6555819.

- System: RXRa homodimer (NR concentration 180 nM)
- Test protocol: PBM binding z-score (relative to random genomic background probes); higher = stronger binding; sequences stand for … in GC…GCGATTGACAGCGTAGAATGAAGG
// bucketize PBM binding z-score: A: < 0.7; B: ≥ 0.7 and < 3; C: ≥ 3

Request: Kindly identify the class of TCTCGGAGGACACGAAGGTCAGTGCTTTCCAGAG .
Response: B

Request: Kindly identify the class of CCTTACGAGTCACTGACAGGTTATAGCATTTGGA .
Response: B

Request: Kindly identify the class of TCTTGTAGATCAATAGAGGGTAAGAAAGTGCGCT .
Response: A

Request: Kindly identify the class of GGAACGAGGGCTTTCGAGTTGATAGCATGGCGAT .
Response: A

Request: Kindly identify the class of CCTAGTTGGTCACGAGGTCACACACCGGATATGA .
Response: C

Request: Kindly identify the class of TAGCCTAGGTCATGGGCCAGTACACCACGCGAAC .
Response: C

Request: Kindly identify the class of ATCTCTAGGTAACCAAGTTCAGGGAATGCCGAAC .
Response: B

Request: Kindly identify the class of TCTAGTTGGGCAAAGGTCACACACTCGAAATGCG .
Response: C

Request: Kindly identify the class of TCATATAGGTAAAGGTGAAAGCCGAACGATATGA .
Response: B

Request: Kindly identify the class of CCTTTCGGGTCACGAGGTTATAGCACGACGAGCG .
Response: C

Request: Kindly identify the class of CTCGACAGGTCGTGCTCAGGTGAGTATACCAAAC .
Response: B

Request: Kindly identify the class of CCTACTGGGCCAAAGGTCGTTGATTCCAATGCTC .
Response: B

Request: Kindly identify the class of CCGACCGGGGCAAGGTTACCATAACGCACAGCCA .
Response: B

Request: Kindly identify the class of ACAGACAGGTGAGCGAAGGTAACTCAGCTGGACG .
Response: A

Request: Kindly identify the class of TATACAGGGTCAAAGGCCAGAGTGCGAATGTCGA .
Response: C

Request: Kindly identify the class of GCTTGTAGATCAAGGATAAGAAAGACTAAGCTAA .
Response: A

Request: Kindly identify the class of CCGACTGGGGCATAAGGTTAGCATAAGCCAGCCC .
Response: A

Request: Kindly identify the class of CCTCGGAGGACAACAGGAGGGCAGAGCTGCCAGA .
Response: A

Request: Kindly identify the class of CGTCCAAGGTGAGAGAGGTCAGTGAATGCCGAGT .
Response: B

Request: Kindly identify the class of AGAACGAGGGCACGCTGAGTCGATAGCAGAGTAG .
Response: B

Request: Kindly identify the class of GCTATTAGTAGAAAGGGCAACCGAATGATTCTCG .
Response: A

Request: Kindly identify the class of CGAACTAGGTCATTGACAGGACAGTCAATAGTAA .
Response: B

Request: Kindly identify the class of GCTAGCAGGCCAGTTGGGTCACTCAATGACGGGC .
Response: A

Request: Kindly identify the class of ATATGTAGGTTAAGGGTCATTCAAGTTGGTTCGC .
Response: C

Request: Kindly identify the class of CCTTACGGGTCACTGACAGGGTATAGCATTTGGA .
Response: C

Request: Kindly identify the class of CCAGACAGGTGAGAAGGTCACTCAGCCTCGATTA .
Response: C
